Read-out: Collagen IV, COL4A1 (gene 1282)
Assay: BSK_MyoF_CollagenIV: BioMAP Diversity Plus: MyoF Assay for Collagen IV Biomarker Activity (AID 2284247)
Conditions: primary human lung fibroblasts
Description: BSK_MyoF is a cell-based, multiplexed-readout assay that uses lung fibroblasts, […], with measurements taken at 24 hours after chemical dosing in a microplate: 96-well plate.BSK_MyoF_CollagenIV is an assay component measured in the BSK_MyoF assay. […] The levels of cell surface (or secreted, indicated by the prefix "s") biomarker endpoints were measured by ELISA. […] Plates were read after 6 h.
Calls of active or inactive are those of the source. How the source made its calls: active means hit-call score of the fitted dose curve at least 0.9, where 1 is the maximum; inactive means score below 0.9.
Bench note: report the call from yes for active, no for inactive

Example results:
• C/C=C\C/C=C/CCCCCCCCOC(C)=O = no
• CCCCC(CC)COC(=O)c1ccccc1O (stereo not given) = no
• COc1ccc2nc(N)sc2c1 = no

[Q] Any idea what this test logged for CCCCCCCCCCCCCCCC[N+](C)(C)CC ?
[A] yes

[Q] Any idea what this test logged for COCc1c(C(C)C)nc(C(C)C)c(/C=C/[C@@H](O)C[C@@H](O)CC(=O)O)c1-c1ccc(F)cc1 ?
[A] no

This collection of values is drawn from PubChem BioAssay (EPA / NIEHS).
